Provenance of the data: ChEMBL document CHEMBL1201862

Record form. Attribute: GI50. Fill in for each entry.
System: A549
test name: NCI tumour cell line growth inhibition, 48 h
Calls of active or inactive are those of the source. No stated cut-off is given here; in the data, active = GI50 up to about 1.1 µM and inactive = higher.

So for O=C1NCCCNCCCNCCCNC(=O)c2cccc1n2 , the logged GI50 turned out to be > 100 µM (inactive)

So for CCOP(=O)(OCC)/C(C#N)=C/c1ccnc2ccccc12 , the logged GI50 turned out to be > 100 µM (inactive)

So for C/C(=N\NC(=S)N1CCCCCCCCCCCC1)c1ccccn1 , the logged GI50 turned out to be 0.356 µM (active)

So for CCCCCCCCCCCCCP(=O)(O)O , the logged GI50 turned out to be > 100 µM (inactive)

So for COc1cccc(N2C(=O)c3c(c4[nH]c5ccccc5c4c4ccc(C(C)(C)C)cc34)C2=O)c1 , the logged GI50 turned out to be > 100 µM (inactive)

So for CC1(C)OC2OC(/C=C/[N+](=O)[O-])C3OC(C)(C)OC3C2O1 (stereo unspecified) , the logged GI50 turned out to be 20.3 µM (inactive)

###

System: OVCAR-8
test name: NCI tumour cell line growth inhibition, 48 h
Calls of active or inactive are those of the source. No stated cut-off is given here; in the data, active = GI50 up to about 1.1 µM and inactive = higher.
observed property: GI50

So for Cn1c(=O)c2[nH]c(C3CC(=O)CC(c4nc5c([nH]4)c(=O)n(C)c(=O)n5C)N3)nc2n(C)c1=O (stereo unspecified) , the logged GI50 turned out to be > 100 µM (inactive)

So for CC[n+]1[b-](C(C)(C)C)n(/N=C/C(C)(C)C)[b-](C(C)(C)C)[n+]1CC , the logged GI50 turned out to be > 100 µM (inactive)

So for O=C(O)C1=NN=C(C(=O)O)NN1 , the logged GI50 turned out to be > 100 µM (inactive)

So for CSc1cc(Cl)c(C)cc1S(=O)(=O)NC(=O)NNc1ccc(F)cc1 , the logged GI50 turned out to be > 100 µM (inactive)

So for OCC(O)CNc1ncnc2ccccc12 (stereo unspecified) , the logged GI50 turned out to be > 100 µM (inactive)

So for OC(C/C=N/Nc1ccccc1)(C(F)(F)Cl)C(F)(F)Cl , the logged GI50 turned out to be > 10 µM (inactive)

So for O=c1c2cc(Br)ccc2nc(-c2ccccc2)n1NCC1(O)OCC(O)C(O)C1O (stereo unspecified) , the logged GI50 turned out to be > 100 µM (inactive)

So for Cc1ccc(S(=O)(=O)N/N=C/C(Br)=C(/Br)C(=O)O)cc1 , the logged GI50 turned out to be 2.6 µM (inactive)

So for CC(=O)N/C(=C\c1cccc([N+](=O)[O-])c1)c1nc2ccc3c(c2[nH]1)C(=O)c1ccccc1C3=O , the logged GI50 turned out to be 43.6 µM (inactive)

So for COC(=O)CC[N+]1([O-])CC1 , the logged GI50 turned out to be > 100 µM (inactive)

So for CC(=O)OCc1ccc2oc(=O)c(C(=O)Oc3cccc(Cl)c3)cc2c1 , the logged GI50 turned out to be > 100 µM (inactive)

###

Test system: RPMI-8226
test name: NCI tumour cell line growth inhibition, 48 h
Activity calls are given as the source filed them. Cut-off read from the data, not from the text of the source: active = GI50 up to about 1.1 µM and inactive = higher.
Choose the fitting class; nothing outside active, inactive is accepted.

Lookup: Returns: the outcome recorded for O=C(/C=C/c1ccc([N+](=O)[O-])o1)N1CCN(Cc2ccccc2)CC1 in this assay.
Found: inactive

Lookup: Returns: the outcome recorded for CCN(CC)C(=S)SCC(=O)Nc1nc2c(s1)CCCC2 in this assay.
Found: inactive

Lookup: Returns: the outcome recorded for O=C1CC(c2ccc(O)cc2)C2(O1)C(=O)OC(C(O)CO)C2O (centres undefined) in this assay.
Found: inactive

Lookup: Returns: the outcome recorded for N=c1c2c(=S)n(-c3ccccc3)c(=S)n(-c3ccccc3)c2nc(SCCN2CCCC2)n1-c1ccccc1 in this assay.
Found: active

Lookup: Returns: the outcome recorded for CCOC(=O)c1sc2nc(SC)nc3c2c1NCN3c1ccccc1Cl in this assay.
Found: inactive

Lookup: Returns: the outcome recorded for COc1ccc(/C=C2\OC(=O)C(Cl)=C2c2ccc(OC)c(Cl)c2)cc1 in this assay.
Found: inactive

Lookup: Returns: the outcome recorded for COc1ccc2[nH]c3c4c(cc(-c5ccccc5)c3c2c1)C(=O)N(c1ccccc1)C4=O in this assay.
Found: inactive

Lookup: Returns: the outcome recorded for CC(C)CCC[C@@H](C)[C@H]1CC[C@H]2[C@@H]3CC=C4C[C@@H](OC(=O)c5cccc6c(=O)c7ccccc7[nH]c56)CC[C@]4(C)[C@H]3CC[C@]12C in this assay.
Found: inactive

Lookup: Returns: the outcome recorded for COc1cccc(NC(=O)CC(=O)N2N=C(n3ccc4ccccc43)CC2c2ccccc2)c1 (centres undefined) in this assay.
Found: inactive
